Test: Fluorescence properties measured at pH about 10 in AttoPhos buffer
Type: physicochemical
Settings: Table 2
measure: EM (nm)

Oc1ccc2nc(/C=C/c3nc4c(ccc5ccccc54)s3)sc2c1 [α-BENT] = 624
Oc1ccc2nc(/C=C/c3nc4c(ccc5ccccc54)o3)sc2c1 [α-BENO] = 585
Oc1ccc2nc(/C=C/c3nc4ccccc4s3)sc2c1 [BEBT] = 620
Oc1ccc2nc(/C=C/c3nc4ccccc4o3)sc2c1 [BEBO] = 604
Oc1ccc2nc(/C=C/c3nc4ccc5ccccc5c4o3)sc2c1 [β-BENO] = 602

* * *

Assay: Fluorescence properties measured at pH about 10 in AttoPhos buffer
Format: physicochemical
Settings: Table 1
measure: Stokes Shift (nm)

Oc1ccc2nc(-c3nc4ccccc4s3)sc2c1F [FBBT] = 129
O=C(O)Cc1ccc2nc(-c3nc4ccc(O)c(Cl)c4s3)sc2c1 [CIBBTAA] = 108
Oc1ccc2nc(-c3nc4ccccc4s3)sc2c1Cl [CIBBT] = 115
O=C(O)Cc1ccc2nc(-c3nc4ccc(O)cc4s3)sc2c1 [BBTAA] = 119
OCCc1ccc2nc(-c3nc4ccc(O)cc4s3)sc2c1 [BBTE] = 128
O=C(Cc1ccc2nc(-c3nc4ccc(O)cc4s3)sc2c1)NCCS(=O)(=O)O [BBTAAT] = 118
O=S(=O)(O)c1c(O)ccc2nc(-c3nc4ccccc4s3)sc12 [SBBT] = 118

The measured values listed here are drawn from patent US6140051A.
